Data credit: patent US20240034731A1

# targetDesc: CDK6/Cyclin D3 (Homo sapiens (Human))
# Sequence (Q00534 whole entry): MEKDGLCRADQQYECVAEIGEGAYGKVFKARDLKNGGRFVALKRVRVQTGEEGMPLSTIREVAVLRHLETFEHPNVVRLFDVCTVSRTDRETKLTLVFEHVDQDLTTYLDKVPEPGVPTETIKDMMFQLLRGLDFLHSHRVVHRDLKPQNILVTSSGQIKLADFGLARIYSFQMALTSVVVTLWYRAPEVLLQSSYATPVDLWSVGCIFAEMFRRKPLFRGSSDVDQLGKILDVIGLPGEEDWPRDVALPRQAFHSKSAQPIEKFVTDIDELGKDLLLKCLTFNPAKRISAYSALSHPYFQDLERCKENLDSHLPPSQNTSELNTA
# Sequence (P30281 whole entry partner): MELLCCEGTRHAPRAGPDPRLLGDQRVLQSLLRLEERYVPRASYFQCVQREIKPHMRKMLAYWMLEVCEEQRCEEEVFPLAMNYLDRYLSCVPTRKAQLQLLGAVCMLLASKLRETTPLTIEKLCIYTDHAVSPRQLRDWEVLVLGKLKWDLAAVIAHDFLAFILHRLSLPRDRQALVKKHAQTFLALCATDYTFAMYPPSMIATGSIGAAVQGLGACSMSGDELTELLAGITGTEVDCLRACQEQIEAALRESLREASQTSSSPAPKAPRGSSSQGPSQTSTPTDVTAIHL
# method: CDK6/Cyclin D3 ADP-Glo Kinase Assay
# experimentalSetup: 100 uM ATP, read-out: CDK6/ CyclinD3 IC50
Provide the recorded IC50 for the entries that follow.

# count of solved cases: 4
[[record]]
compound = "Cc1cc2cnc(NC3CCN(S(C)(=O)=O)CC3)nc2c(C2CC3(C2)CN(C)CCO3)n1 (centres unmarked) [Compound 84]"
assayendpoint = "IC50"
result = "< 200 nM"

[[record]]
compound = "Cc1cc2cnc(Nc3ccc(CS(C)(=O)=O)cc3)nc2c(N2CC(O)(C3CC3)C2)n1 [Compound 83]"
assayendpoint = "IC50"
result = "< 200 nM"

[[record]]
compound = "Cc1cc2cnc(N[C@H]3CC[C@H](CN(C)C)CC3)nc2c(N2CCC3(C2)CC3(F)F)n1 (some centres unmarked) [Compound 40]"
assayendpoint = "IC50"
result = "< 200 nM"

[[record]]
compound = "Cc1cc2cnc(NC3CCN(S(=O)(=O)C4CC4)CC3)nc2c(N2CCC(OC(F)F)C2)n1 (centres unmarked) [Compound 58]"
assayendpoint = "IC50"
result = "< 200 nM"


State the recorded IC50 for every item in the following list.
1. Cc1cc2cnc(NC3CCN(S(=O)(=O)C4CC4)CC3)nc2c(N2CC3(CC(O)C3)C2)n1 [Compound 66]
2. Cc1cc2cnc(NC3CCN(S(C)(=O)=O)CC3)nc2c(N2CC3(C2)CC(C)(O)C3)n1 [Compound 79]
3. CS(=O)(=O)N1CCC(Nc2ncc3cc(C4CC4)nc(N4CC(F)(F)C5(CNC5)C4)c3n2)CC1 [Example 60]

1. < 200 nM
2. 200 to 500 nM
3. < 200 nM

Give IC50 for each listed item.
1. Cc1cc2cnc(NC3CCN(S(C)(=O)=O)CC3)nc2c(N2CC3(CCC(=O)N3)C2)n1 [Compound 77]
2. Cc1cc2cnc(N[C@H]3CC[C@@H](CN(C)C)CC3)nc2c(N2CCC3(C2)CC3(F)F)n1 (some centres unmarked) [Compound 45]
3. Cc1cc2cnc(NC3CCN(S(=O)(=O)C4(C)CC4)CC3)nc2c(N2CCC3(CN(C)C3)C2)n1 [Compound 59]
4. CN1C[C@@H]2[C@H](C1)[C@H]2Nc1ncc2ccnc(N3CCC4(C3)CC4(F)F)c2n1 (some centres unmarked) [Compound 17]

1: < 200 nM; 2: 500 to 2000 nM; 3: < 200 nM; 4: 200 to 500 nM
